Recorded measurements of viability, T/C, one per entry
# Tested on: 695427-040-R-J1-PDC complex spheroid viability;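 further: spheroids exposed to compounds for seven days; 100% = DMSO vehicle control viability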
# procedure_summary: Anticancer human tumor 695427-040-R-J1-PDC patient-derived colon adenocarcinoma cell line growth inhibition [POLQ]
# particulars: second compound 0.1 µM; first compound 0.316 µM; active compounds read low

compound="CC(C)n1c(=O)n(C)c2cnc3cc(F)c(-c4ccc(OCCCN5CCCCC5)nc4)cc3c21 + Nc1ccc(C#CCN(C(=O)Cc2ncc(C(F)(F)F)cc2C(F)(F)F)c2ccc(F)cc2)nn1" measure="viability, T/C" result=115%
compound="O=c1[nH]cc(F)c(=O)[nH]1 + COC1C(OC(N)=O)C(O)C(Oc2ccc3c(O)c(NC(=O)c4ccc(O)c(CC=C(C)C)c4)c(=O)oc3c2C)OC1(C)C" measure="viability, T/C" result=108%
compound="O=c1[nH]cc(F)c(=O)[nH]1 + Nc1ccc(C#CCN(C(=O)Cc2ncc(C(F)(F)F)cc2C(F)(F)F)c2ccc(F)cc2)nn1" measure="viability, T/C" result=95.1%

*Q* # lookup: viability, T/C of COc1ccc([C@@H](O)c2cc(-c3ncnc4cc(N5CCOCC5)ccc34)c(F)cc2Cl)nn1 + Nc1ccc(C#CCN(C(=O)Cc2ncc(C(F)(F)F)cc2C(F)(F)F)c2ccc(F)cc2)nn1
*A* 98.8%

*Q* Also O=c1[nH]cc(F)c(=O)[nH]1 + Cc1cccc(N(C)C(=O)C2C(O)CCN2c2nc(C)cc(C(F)(F)F)c2C#N)c1 ?
*A* 102%

*Q* Also COc1cc(C2c3cc4c(cc3C(OC3OC5COC(C)OC5C(O)C3O)C3COC(=O)C23)OCO4)cc(OC)c1O (stereo unspecified) + Cc1cccc(N(C)C(=O)C2C(O)CCN2c2nc(C)cc(C(F)(F)F)c2C#N)c1 ?
*A* 102%
